# credit: ChEMBL document CHEMBL4393654

assay: Oral bioavailability in rat at 2.5 umol/kg; type: ADME, organism-based; conditions: in vivo
Property measured: bioavailability (%)
Write the value in % as a bare number.

Sample Cc1cc(-c2ccc(C(=O)[C@@H]3CCCC[C@H]3C(=O)Nc3cnn4c3C(=O)NCC4)cc2)[nH]n1 ; bioavailability observed: 14

* * *

molecular target: UniProt:P11712; assay: Inhibition of recombinant human CYP2C9 expressed in Escherichia coli using 7MFC as substrate by fluorescence assay
Sequence (P11712 whole entry): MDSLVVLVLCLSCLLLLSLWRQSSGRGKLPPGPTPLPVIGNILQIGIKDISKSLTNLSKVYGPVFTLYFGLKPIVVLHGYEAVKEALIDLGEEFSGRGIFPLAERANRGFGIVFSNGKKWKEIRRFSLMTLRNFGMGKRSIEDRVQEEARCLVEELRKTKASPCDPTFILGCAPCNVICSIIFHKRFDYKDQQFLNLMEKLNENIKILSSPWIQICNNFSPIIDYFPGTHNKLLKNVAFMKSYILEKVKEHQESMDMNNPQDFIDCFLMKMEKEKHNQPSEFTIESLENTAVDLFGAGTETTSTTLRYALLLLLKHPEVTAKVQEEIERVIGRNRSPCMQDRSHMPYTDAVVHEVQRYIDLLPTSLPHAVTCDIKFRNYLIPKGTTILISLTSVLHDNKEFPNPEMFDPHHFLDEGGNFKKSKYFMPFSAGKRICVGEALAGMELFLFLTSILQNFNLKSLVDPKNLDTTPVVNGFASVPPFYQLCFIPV
pIC50: −log10 of the molar value.
Property measured: pIC50

Solved cases below.
> print(dat)
                                smiles.text  measurement
1  Cc1cc(-c2ccc(C(=O)[C@@H]3CCCC[C@H]3C(=O)Nc3cnn(C)c3C(=O)NOC(C)(C)C)cc2)[nH]n1       < 4.70
2  Cc1cc(-c2ccc(C(=O)[C@@H]3CCCC[C@H]3C(=O)Nc3cnn4c3C(=O)NCC4)cc2)[nH]n1       < 4.70

In the following, a different compound is considered.
Sample Cc1cc(-c2ccc(C(=O)[C@@H]3CCCC[C@H]3C(=O)Nc3cnn(C)c3S(N)(=O)=O)cc2)[nH]n1 ; pIC50 observed: < 4.70

* * *

test: Octanol-phosphate buffer partition co-efficient, log D of the compound at pH 7.4 after 2 hrs by LC-MS/MS-based shake flask method; assay type: physicochemical
Quick list: logD at 2 h per entry.
Response field accepts a number only; no unit should be typed.

Solved cases below.
> print(dat)
                                smiles.text  property.measured  measurement
1  Cc1cc(-c2ccc(C(=O)[C@@H]3CCCC[C@H]3C(=O)Nc3cnn(C)c3C(=O)O)cc2)[nH]n1        logD at 2 h          0.2
2  Cc1cc(-c2ccc(C(=O)[C@@H]3CCCC[C@H]3C(=O)Nc3cnn(C)c3C(N)=O)cc2)[nH]n1        logD at 2 h          2.6
3  Cc1cc(-c2ccc(C(=O)[C@@H]3CCCC[C@H]3C(=O)Nc3cnn(C)c3S(N)(=O)=O)cc2)[nH]n1        logD at 2 h          3.4

Sample CCn1ncc(NC(=O)[C@@H]2CCCC[C@H]2C(=O)c2ccc(-c3cc(C)n[nH]3)cc2)c1C(N)=O ; logD at 2 h observed: 2.9

Sample Cc1cc(-c2ccc(C(=O)[C@@H]3CCCC[C@H]3C(=O)Nc3cn(C)nc3C)cc2)n[nH]1 ; logD at 2 h observed: 3.1

Sample Cc1cc(-c2ccc(C(=O)[C@@H]3CCCC[C@H]3C(=O)Nc3cnn(C)c3C(=O)NO)cc2)[nH]n1 ; logD at 2 h observed: 2.1

Sample Cc1cc(-c2ccc(C(=O)[C@@H]3CCCC[C@H]3C(=O)Nc3cnn4c3C(=O)NCC4)cc2)[nH]n1 ; logD at 2 h observed: 2.9

Sample Cc1cc(-c2ccc(C(=O)[C@@H]3CCCC[C@H]3C(=O)Nc3c(C)nn(C)c3C(N)=O)cc2)n[nH]1 ; logD at 2 h observed: 2.6

Sample Cc1cc(-c2ccc(C(=O)[C@@H]3CCCC[C@H]3C(=O)Nc3cnn(C)c3C(=O)NOC(C)(C)C)cc2)[nH]n1 ; logD at 2 h observed: 3.3

Sample Cc1cc(-c2ccc(C(=O)[C@@H]3CCCC[C@H]3C(=O)Nc3cnn(CC(N)=O)c3)cc2)[nH]n1 ; logD at 2 h observed: 2.1

Sample Cc1cc(-c2ccc(C(=O)[C@@H]3CCCC[C@H]3C(=O)Nc3c(C(N)=O)n[nH]c3C)cc2)[nH]n1 ; logD at 2 h observed: 2.3

* * *

Biological target: Potassium/sodium hyperpolarization-activated cyclic nucleotide-gated channel 4 (Homo sapiens, UniProt Q9Y3Q4)
Sequence (Q9Y3Q4 whole entry): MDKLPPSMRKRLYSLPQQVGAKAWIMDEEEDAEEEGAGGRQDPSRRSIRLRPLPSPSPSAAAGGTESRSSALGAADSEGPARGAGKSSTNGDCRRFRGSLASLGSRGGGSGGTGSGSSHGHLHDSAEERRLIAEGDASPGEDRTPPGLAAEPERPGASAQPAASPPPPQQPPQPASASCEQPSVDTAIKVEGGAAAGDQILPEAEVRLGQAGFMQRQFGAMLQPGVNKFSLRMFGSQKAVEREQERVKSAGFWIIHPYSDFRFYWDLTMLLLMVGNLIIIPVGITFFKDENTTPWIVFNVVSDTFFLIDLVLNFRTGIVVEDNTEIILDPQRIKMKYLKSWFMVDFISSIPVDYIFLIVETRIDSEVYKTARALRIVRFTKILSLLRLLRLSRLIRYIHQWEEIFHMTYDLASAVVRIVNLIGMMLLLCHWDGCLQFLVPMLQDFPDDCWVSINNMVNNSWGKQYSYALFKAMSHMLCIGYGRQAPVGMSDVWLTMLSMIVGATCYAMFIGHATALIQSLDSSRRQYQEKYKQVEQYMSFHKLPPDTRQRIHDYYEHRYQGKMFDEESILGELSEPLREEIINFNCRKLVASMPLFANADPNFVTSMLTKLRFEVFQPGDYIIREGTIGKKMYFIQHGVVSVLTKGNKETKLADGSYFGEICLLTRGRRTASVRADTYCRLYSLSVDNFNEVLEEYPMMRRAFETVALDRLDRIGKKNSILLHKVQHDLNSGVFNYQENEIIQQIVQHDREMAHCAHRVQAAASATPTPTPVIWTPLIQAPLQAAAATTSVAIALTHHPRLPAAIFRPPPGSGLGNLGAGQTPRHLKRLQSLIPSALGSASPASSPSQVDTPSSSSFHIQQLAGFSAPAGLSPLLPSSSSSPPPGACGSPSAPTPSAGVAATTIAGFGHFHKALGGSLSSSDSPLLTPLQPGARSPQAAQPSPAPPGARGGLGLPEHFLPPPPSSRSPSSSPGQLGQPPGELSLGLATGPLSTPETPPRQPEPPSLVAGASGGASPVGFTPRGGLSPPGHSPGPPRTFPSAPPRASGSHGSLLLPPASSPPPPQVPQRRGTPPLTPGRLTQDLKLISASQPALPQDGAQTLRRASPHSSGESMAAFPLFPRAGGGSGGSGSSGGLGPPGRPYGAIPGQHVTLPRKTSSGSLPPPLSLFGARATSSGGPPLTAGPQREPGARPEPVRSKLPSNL
Experiment: Inhibition of human HCN4 by Ion-work electrophysiology assay
pIC50: −log10 of the molar value.
Property measured: pIC50

Sample Cc1cc(-c2ccc(C(=O)[C@@H]3CCCC[C@H]3C(=O)Nc3cnn(C)c3S(N)(=O)=O)cc2)[nH]n1 ; pIC50 observed: < 4.49

Sample Cc1cc(-c2ccc(C(=O)[C@@H]3CCCC[C@H]3C(=O)Nc3cnn4c3C(=O)NCC4)cc2)[nH]n1 ; pIC50 observed: < 4.49

* * *

assay: Intrinsic clearance in rat hepatocytes assessed per million cells at 1 uM measured after 2 to 60 mins by LC-MS/MS analysis; type: ADME, cell-based, Hepatocyte; conditions: read-out: CLH
Quick list: hepatocyte CLint at 1 µM per entry.

Solved cases below.
> print(dat)
                                smiles.text         property.measured            measurement
1  Cc1cc(-c2ccc(C(=O)[C@@H]3CCCC[C@H]3C(=O)Nc3cn(C)nc3C)cc2)n[nH]1  hepatocyte CLint at 1 µM  12.8 µL/min/1e6 cells
2  Cc1cc(-c2ccc(C(=O)[C@@H]3CCCC[C@H]3C(=O)Nc3cnn(C)c3C(=O)NOC(C)(C)C)cc2)[nH]n1  hepatocyte CLint at 1 µM  19.5 µL/min/1e6 cells
3  Cc1cc(-c2ccc(C(=O)[C@@H]3CCCC[C@H]3C(=O)Nc3c(C(N)=O)n[nH]c3C)cc2)[nH]n1  hepatocyte CLint at 1 µM  14.4 µL/min/1e6 cells

In the following, a different compound is considered.
Sample Cc1cc(-c2ccc(C(=O)[C@@H]3CCCC[C@H]3C(=O)Nc3cn(C)nc3C(N)=O)cc2)n[nH]1 ; hepatocyte CLint at 1 µM observed: 14 µL/min/1e6 cells

* * *

experiment: Mutagenicity in Salmonella typhimurium TA98 in absence of rat S9 fraction by Ames test; type: toxicity; conditions: salmonella enterica subsp. enterica serovar typhimurium
Property measured: Activity

> print(dat)
                                smiles.text  property.measured  measurement
1  CCn1ncc(NC(=O)[C@@H]2CCCC[C@H]2C(=O)c2ccc(-c3cc(C)n[nH]3)cc2)c1C(N)=O           Activity        Toxic
2  Cc1cc(-c2ccc(C(=O)[C@@H]3CCCC[C@H]3C(=O)Nc3cn(C)nc3C(N)=O)cc2)n[nH]1           Activity    Non-Toxic
3  Cc1cc(-c2ccc(C(=O)[C@@H]3CCCC[C@H]3C(=O)Nc3cn(C)nc3C)cc2)n[nH]1           Activity    Non-Toxic
4  Cc1cc(-c2ccc(C(=O)[C@@H]3CCCC[C@H]3C(=O)Nc3cnn(C)c3S(N)(=O)=O)cc2)[nH]n1           Activity    Non-Toxic
5  Cc1cc(-c2ccc(C(=O)[C@@H]3CCCC[C@H]3C(=O)Nc3c(C)nn(C)c3C(N)=O)cc2)n[nH]1           Activity        Toxic

Sample Cc1cc(-c2ccc(C(=O)[C@@H]3CCCC[C@H]3C(=O)Nc3cnn(C)c3C(N)=O)cc2)[nH]n1 ; Activity observed: Toxic

Sample Cc1cc(-c2ccc(C(=O)[C@@H]3CCCC[C@H]3C(=O)Nc3cnn4c3C(=O)NCC4)cc2)[nH]n1 ; Activity observed: Non-Toxic

Sample Cc1cc(-c2ccc(C(=O)[C@@H]3CCCC[C@H]3C(=O)Nc3cnn(C)c3C(=O)NOC(C)(C)C)cc2)[nH]n1 ; Activity observed: Non-Toxic
